Listing of entries alongside the reported inhibition at 0.1 µM.
- experimental_target: rat brain monoamine oxidase-B (Rattus norvegicus)
- Construct: appropriately diluted homogenates of rat brain or liver; from tissue; host or cells: rat brain or liver homogenate
- Sequence (P19643 whole entry): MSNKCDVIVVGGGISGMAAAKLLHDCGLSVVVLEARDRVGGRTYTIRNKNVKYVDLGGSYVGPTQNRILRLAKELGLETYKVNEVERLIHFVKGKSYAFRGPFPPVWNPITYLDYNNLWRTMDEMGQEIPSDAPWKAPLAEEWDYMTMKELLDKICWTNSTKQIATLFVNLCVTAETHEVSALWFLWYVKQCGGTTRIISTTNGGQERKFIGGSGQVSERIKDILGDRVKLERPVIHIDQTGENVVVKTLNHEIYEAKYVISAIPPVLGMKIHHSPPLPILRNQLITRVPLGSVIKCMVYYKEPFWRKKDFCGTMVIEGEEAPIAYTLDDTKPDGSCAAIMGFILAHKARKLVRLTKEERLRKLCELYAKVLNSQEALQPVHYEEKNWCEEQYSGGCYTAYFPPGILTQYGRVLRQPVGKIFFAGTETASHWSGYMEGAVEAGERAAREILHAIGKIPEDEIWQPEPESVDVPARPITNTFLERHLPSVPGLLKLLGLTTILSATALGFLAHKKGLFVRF
- assay_overview: Monoamine oxidase-B inhibiting activity in vitro (radiochemical, β-phenylethylamine substrate, rat brain homogenate)
- Format: biochemical
- condition_set: 1 × 10^-7 M
reported_metric: inhibition at 0.1 µM

{"columns": ["molecule", "experimental_target", "reported_measurement"],
 "data": [
  ["C#CCN(CCc1ccccc1)NC(C)=O [CVT-P041, N^1 -propargyl-N^2 -acetylphenelzine]", "rat brain monoamine oxidase-B (Rattus norvegicus)", "6.2%"],
  ["C#CCN(N)CCc1ccccc1 [CVT-P040, N^1 -propargylphenelzine]", "rat brain monoamine oxidase-B (Rattus norvegicus)", "59.8%"],
  ["C#CCN(N)c1ccccc1 [CVT-P047, N^1 -propargylphenylhydrazine]", "rat brain monoamine oxidase-B (Rattus norvegicus)", "17.9%"],
  ["C#CCN(N)Cc1ccccc1 [CVT-P046, N^1 -propargylbenzylhydrazine]", "rat brain monoamine oxidase-B (Rattus norvegicus)", "64.9%"],
  ["NNCCc1ccccc1 [phenelzine, 1-(2-phenyl) ethylhydrazine, reference compound]", "rat brain monoamine oxidase-B (Rattus norvegicus)", "18.3%"]
]}
